// provenance: patent US5849701A

Tested On: fibronectin (Homo sapiens)
Test Protocol: Inhibition of 125I-fibronectin binding to immobilized peptide GlyGlyTrpSerHisTrp
Test Conditions: wells coated with 50 μg/ml peptide; 0.5 μg/ml 125I-fibronectin
Where no end group is shown, it is not given here.
Measured Quantity: IC50 (µM)
Numbers only, in µM.

Param readout= IC50; system= fibronectin (Homo sapiens); entry= GGWSHW [Peptide 300, GGWSHW] ; returns value.
27

* * *

Tested On: fibronectin (Homo sapiens, UniProt P02751)
Sequence (P02751 32-2477): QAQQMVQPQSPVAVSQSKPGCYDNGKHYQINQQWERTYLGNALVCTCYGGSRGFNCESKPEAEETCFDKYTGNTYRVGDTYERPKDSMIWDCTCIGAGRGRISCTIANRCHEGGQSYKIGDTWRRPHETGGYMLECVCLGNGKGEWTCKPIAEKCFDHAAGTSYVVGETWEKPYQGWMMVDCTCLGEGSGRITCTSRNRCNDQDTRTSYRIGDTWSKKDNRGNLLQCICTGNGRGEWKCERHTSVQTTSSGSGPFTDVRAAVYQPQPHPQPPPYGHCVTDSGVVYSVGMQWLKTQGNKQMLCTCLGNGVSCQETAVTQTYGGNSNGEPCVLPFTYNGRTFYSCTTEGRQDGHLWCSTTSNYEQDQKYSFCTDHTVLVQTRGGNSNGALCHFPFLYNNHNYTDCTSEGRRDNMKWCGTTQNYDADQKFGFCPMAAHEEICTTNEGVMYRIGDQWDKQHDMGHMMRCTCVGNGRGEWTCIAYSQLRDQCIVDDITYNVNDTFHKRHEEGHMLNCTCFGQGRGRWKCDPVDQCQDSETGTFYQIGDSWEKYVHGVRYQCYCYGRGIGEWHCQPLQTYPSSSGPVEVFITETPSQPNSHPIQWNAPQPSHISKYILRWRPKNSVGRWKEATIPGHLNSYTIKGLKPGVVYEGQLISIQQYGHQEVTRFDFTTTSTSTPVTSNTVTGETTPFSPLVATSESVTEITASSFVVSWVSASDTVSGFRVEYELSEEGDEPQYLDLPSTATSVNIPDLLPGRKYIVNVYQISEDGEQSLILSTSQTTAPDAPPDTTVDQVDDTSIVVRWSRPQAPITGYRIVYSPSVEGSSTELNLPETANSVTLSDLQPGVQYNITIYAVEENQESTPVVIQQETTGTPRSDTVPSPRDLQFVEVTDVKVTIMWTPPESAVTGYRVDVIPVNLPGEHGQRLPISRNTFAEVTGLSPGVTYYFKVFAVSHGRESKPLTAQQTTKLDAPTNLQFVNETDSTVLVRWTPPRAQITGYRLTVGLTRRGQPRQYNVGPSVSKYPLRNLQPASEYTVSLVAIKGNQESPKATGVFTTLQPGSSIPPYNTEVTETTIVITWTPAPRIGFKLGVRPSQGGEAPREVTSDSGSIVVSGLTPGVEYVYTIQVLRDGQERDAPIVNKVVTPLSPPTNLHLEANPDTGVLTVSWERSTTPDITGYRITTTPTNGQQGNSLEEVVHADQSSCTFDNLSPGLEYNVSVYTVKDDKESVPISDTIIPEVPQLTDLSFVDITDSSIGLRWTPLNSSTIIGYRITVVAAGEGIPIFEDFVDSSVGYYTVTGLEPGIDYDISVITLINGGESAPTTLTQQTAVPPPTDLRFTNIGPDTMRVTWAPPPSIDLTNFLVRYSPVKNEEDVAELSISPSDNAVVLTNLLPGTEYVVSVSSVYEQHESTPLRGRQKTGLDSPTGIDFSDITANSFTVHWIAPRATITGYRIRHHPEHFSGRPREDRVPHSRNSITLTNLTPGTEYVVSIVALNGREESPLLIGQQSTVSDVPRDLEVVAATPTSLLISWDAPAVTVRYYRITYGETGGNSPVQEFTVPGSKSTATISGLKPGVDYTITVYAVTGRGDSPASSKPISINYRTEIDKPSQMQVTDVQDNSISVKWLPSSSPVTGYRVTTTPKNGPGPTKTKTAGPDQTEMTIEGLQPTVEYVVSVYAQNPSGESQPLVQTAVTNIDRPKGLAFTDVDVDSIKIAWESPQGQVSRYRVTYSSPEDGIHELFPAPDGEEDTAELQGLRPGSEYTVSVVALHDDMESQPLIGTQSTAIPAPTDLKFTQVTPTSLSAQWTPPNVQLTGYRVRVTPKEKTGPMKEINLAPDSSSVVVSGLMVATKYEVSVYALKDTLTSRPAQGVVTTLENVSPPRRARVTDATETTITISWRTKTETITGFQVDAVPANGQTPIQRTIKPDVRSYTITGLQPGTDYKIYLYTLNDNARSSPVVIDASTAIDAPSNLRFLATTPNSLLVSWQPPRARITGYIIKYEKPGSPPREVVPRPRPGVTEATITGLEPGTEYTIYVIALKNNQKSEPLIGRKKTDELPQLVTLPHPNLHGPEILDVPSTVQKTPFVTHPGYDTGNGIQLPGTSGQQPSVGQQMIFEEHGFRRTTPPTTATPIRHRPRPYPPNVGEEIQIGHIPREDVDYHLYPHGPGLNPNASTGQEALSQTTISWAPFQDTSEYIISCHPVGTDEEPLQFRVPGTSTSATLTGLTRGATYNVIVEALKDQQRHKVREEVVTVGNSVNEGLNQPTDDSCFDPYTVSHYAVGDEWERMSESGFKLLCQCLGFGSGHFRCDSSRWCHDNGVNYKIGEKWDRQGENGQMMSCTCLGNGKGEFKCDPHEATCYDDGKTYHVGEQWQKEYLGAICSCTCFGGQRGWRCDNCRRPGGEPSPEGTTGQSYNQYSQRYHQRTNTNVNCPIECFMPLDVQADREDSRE
Test Protocol: Inhibition of fibronectin binding to immobilized native type I collagen
Description: Wells of a microtiter plate were incubated for 3 hours at 25° C. with […] gelatin in Dulbecco's PBS. The wells were emptied and incubated with Dulbecco's PBS containing 1% BSA for 30 minutes. […] The wells were washed 4 times with PBS, cut from the plate and the bound radioactivity was counted. […]
Where no end group is shown, it is not given here.
Measured Quantity: pIC50
Answers are plain numbers, as −log10 of the molar value.

Write down the reported pIC50 of GGWSHW [Peptide 300, GGWSHW] , test system: fibronectin (Homo sapiens, UniProt P02751).
4.40
